Test system: MDA-MB-468
Assay: Cytotoxicity against human MDA-MB-468 cells by SRB assay
Type: functional, cell-based

{"columns": ["compound", "IC50, µM"],
 "data": [
  ["O=C(/C=C/c1ccc(Oc2ccc(Cl)nn2)cc1)c1ccc(OCc2ccc(F)c(Cl)c2)cc1", 36.3],
  ["COc1cccc2c1C(=O)c1c(O)c3c(c(O)c1C2=O)C[C@@](O)(C(=O)CO)C[C@@H]3O[C@H]1C[C@H](N)[C@H](O)[C@H](C)O1 [DOXORUBICIN]", 6.8],
  ["CC(=O)Nc1ccc(C(=O)/C=C/c2ccc(Oc3ccc(Cl)nn3)cc2)cc1", 81.5],
  ["O=C(/C=C/c1ccc(Oc2ccc(Cl)nn2)cc1)c1ccc(OCc2ccc(OC(F)(F)F)cc2)cc1", 68.3],
  ["O=C(/C=C/c1ccc(Oc2ccc(Cl)nn2)cc1)c1ccc(OCc2ccc(Cl)cc2Cl)cc1", 21.5],
  ["O=C(/C=C/c1ccc(Oc2ccc(Cl)nn2)cc1)c1ccc(O)cc1", 116],
  ["Nc1ccc(C(=O)/C=C/c2ccc(Oc3ccc(Cl)nn3)cc2)cc1", 11.4],
  ["O=C(/C=C/c1ccc(Oc2ccc(Cl)nn2)cc1)c1ccc(OCc2ccccc2)cc1", 54.2],
  ["O=C1NC(=O)/C(=C\\c2ccc(Oc3ccc(Cl)nn3)cc2)S1", 108]
]}
